This collection of values is drawn from PubChem BioAssay.

biological target: NADPH oxidase 5 (Homo sapiens); assay: NOX5-dependent H2O2 signal modulators, primary screen, NOX inhibitor project, cell-based, HEK293-NOX5, Amplex Red fluorescence (AID 1161); conditions: HEK293-NOX5, ionomycin, 45 min, higher = more signal
z-score values, listed per item

[
  {
    "chemical-smiles": "O=C1[C@H]2[C@H]3[C@H](O)[C@H](O)CC(=NOC[C@@H](O)COCc4ccco4)[C@H]3CC[C@H]2C(=O)N1c1cccc(Oc2ccccc2)c1",
    "z-score": -0.185
  },
  {
    "chemical-smiles": "C=CCNC(=O)[C@H]1[C@@H]2C(=O)O[C@@H](c3ccccc3)[C@@H](c3ccccc3)N2[C@@H](c2ccc(O)cc2)[C@]12C(=O)N(C(=O)OCCOC)c1ccc(C#CC3=CCCCC3)cc12",
    "z-score": 1.47
  },
  {
    "chemical-smiles": "O=C1C[C@@H](O)[C@@H](O)[C@@H]2[C@@H]3C(=O)N(c4ccc(F)cc4F)C(=O)[C@@H]3CC[C@@H]12",
    "z-score": -0.457
  },
  {
    "chemical-smiles": "CO[C@@H]1COC(=O)CCC[C@@H](C)[C@H](OC)COC(=O)[C@H](Cc2ccccc2)NC(=O)CC=C[C@H]1C",
    "z-score": -0.444
  },
  {
    "chemical-smiles": "C=C(/C(=C/C[C@H](OC(=O)c1ccncc1)c1ccc(OCCO)cc1)c1cnc2ccccc2c1)C(C)C",
    "z-score": -0.699
  },
  {
    "chemical-smiles": "CC[C@@H](c1ccccc1)n1c(=O)n2n(c1=O)[C@H]1[C@H](O)[C@@H]3O[C@@H]3C(=NOCC(C)C)[C@H]1CC2",
    "z-score": 0.371
  },
  {
    "chemical-smiles": "COc1ccccc1CN1C(=O)c2ccccc2[C@@]2(Cc3ccccc3N(C(C)C)C2=O)[C@@H]1c1ccc(CO)cc1",
    "z-score": 1.04
  }
]
